Biological target: T1, His/Avi-CynoIL18BP (recombinant cynomolgus IL-18BP with His and Avi tags) (cynomolgus monkey)
T1 construct: also called cynomolgus IL-18BP-Avi-His
T1 chain: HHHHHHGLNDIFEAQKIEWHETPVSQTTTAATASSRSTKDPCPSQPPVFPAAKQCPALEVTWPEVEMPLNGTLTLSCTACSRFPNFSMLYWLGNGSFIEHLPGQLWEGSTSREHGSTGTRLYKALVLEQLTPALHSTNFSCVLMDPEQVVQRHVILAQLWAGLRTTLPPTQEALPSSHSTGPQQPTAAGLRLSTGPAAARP
Assay: SPR Biacore T200, IgG captured on Protein A/G
# reported kon; entries follow
readout: kon (M⁻¹ s⁻¹)

binder	readout	reported-value
anti-IL-18BP antibody variant BP-04.07 (antibody, V domains shown) VH: QVQLVQSGAEVKKPGASVKVSCKASGYTFTDYDMHWVRQAPGQGLEWMGIISTYYGVVSYAQKKQGRVTMTRDKSTSTVYMELSSLRSEDTAVYYCARSGTYNYGTRESHALDYWGQGTLVTVSS VL: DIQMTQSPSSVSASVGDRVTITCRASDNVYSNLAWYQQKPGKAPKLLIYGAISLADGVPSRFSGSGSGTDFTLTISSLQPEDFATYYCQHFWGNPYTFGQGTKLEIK	kon	320000
anti-IL-18BP antibody variant BP-04.28 (antibody, V domains shown) VH: QVQLVQSGAEVKKPGASVKVSCKASGYTFTDYDMHWVRQAPGQGLEWMGIISTYYGDVSYAQKFQGRVTMTRDKSTSTVYMELSSLRSEDTAVYYCARSGTYYYGTRESHPLDYWGQGTLVTVSS VL: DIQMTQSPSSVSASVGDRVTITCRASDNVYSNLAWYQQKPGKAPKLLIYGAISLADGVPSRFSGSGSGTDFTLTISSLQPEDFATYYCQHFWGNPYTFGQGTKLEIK	kon	330000
anti-IL-18BP antibody variant BP-04.09 (antibody, V domains shown) VH: QVQLVQSGAEVKKPGASVKVSCKASGYTFTDYDMHWVRQAPGQGLEWMGIYSTYYGVVSYAQKFQGRVTMTRDKSTSTVYMELSSLRSEDTAVYYCARSGTYYYGTRESHAFDYWGQGTLVTVSS VL: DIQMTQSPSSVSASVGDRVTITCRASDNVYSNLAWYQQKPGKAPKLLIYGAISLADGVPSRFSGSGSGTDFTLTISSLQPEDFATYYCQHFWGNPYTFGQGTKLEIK	kon	450000
anti-IL-18BP antibody variant BP-04.03 (antibody, V domains shown) VH: QVQLVQSGAEVKKPGASVKVSCKASGYTFTDYDMHWVRQAPGQGLEWMGIISTYYGDVSYAQKFQGRVTMTRDKSTSTVYMELSSLRSENTAVYYCARSGTYYYGTREQHALDYWGQGTLVTVSS VL: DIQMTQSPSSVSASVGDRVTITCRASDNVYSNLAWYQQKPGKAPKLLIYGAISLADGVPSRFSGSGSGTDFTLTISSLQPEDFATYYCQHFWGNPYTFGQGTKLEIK	kon	420000
anti-IL-18BP antibody variant BP-04.24 (antibody, V domains shown) VH: QVQLVQSGAEVKKPGASVKVSCKASGYTFTDYDMHWVRQAPGQGLEWMGIYSTYYGDVSYAQKFQGRVTMTRDKSTSTVYMELSSLRSEDTAVYYCARSGTYYYGTRESHPLDYWGQGTLVTVSS VL: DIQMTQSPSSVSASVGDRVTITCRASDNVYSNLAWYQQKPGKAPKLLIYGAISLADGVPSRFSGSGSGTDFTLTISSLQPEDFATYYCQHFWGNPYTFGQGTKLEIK	kon	200000
anti-IL-18BP antibody variant BP-04.25 (antibody, V domains shown) VH: QVQLVQSGAEVKKPGASVKVSCKASGYTFTDYDMHWVRQAPGQGLEWMGIYSTYYGDVSYAQKFQGRVTMTRDKSTSTVYMELSSLRSEDTAVYYCARSGTYNYGTRESHALDYWGQGTLVTVSS VL: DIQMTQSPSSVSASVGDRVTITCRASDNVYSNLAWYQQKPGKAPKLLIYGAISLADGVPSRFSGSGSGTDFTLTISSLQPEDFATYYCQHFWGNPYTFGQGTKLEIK	kon	220000
anti-IL-18BP antibody variant BP-04.32 (antibody, V domains shown) VH: QVQLVQSGAEVKKPGASVKVSCKASGYTFTDYDMHWVRQAPGQGLEWMGIYSTYYGDVSYAQKFQGRVTMTRDKSTSTVYMELSSLRSEDTAVYYCARSGTYYYGTRESHALDYWGQGTLVTVSS VL: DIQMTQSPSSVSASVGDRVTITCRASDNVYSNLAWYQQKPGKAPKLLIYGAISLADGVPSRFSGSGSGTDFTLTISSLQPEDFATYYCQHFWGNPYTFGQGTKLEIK	kon	340000
anti-IL-18BP antibody variant BP-04.29 (antibody, V domains shown) VH: QVQLVQSGAEVKKPGASVKVSCKASGYTFTDYDMHWVRQAPGQGLEWMGIISTYYGDVSYAQKFQGRVTMTRDKSTSTVYMELSSLRSEDTAVYYCARSGTYNYGTRESHALDYWGQGTLVTVSS VL: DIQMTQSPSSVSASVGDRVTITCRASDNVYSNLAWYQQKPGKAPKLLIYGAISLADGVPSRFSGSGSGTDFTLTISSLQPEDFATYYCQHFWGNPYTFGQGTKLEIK	kon	340000
anti-IL-18BP antibody variant BP-04.08 (antibody, V domains shown) VH: QVQLVQSGAEVKKPGASVKVSCKASGYTFTDYDMHWVRQAPGQGLEWMGIYSTYYGDVSYAQKKQGRVTMTRDKSTSTVYMELSSLRSEDTAVYYCARSGTYNYGTRESHALDYWGQGTLVTVSS VL: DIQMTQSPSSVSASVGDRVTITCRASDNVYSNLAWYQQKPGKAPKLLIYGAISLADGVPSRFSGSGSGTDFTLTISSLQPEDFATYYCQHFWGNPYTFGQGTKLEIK	kon	260000

Source of measurements: patent US20250333523A1
